# TARGET_ENTITY: soluble HLA-E-VL9, HLA-E*01:03 heavy chain refolded with β2-microglobulin and synthetic VL9 peptide (Homo sapiens, HLA-E*01:03, strain)

| BINDER | binding result |
| --- | --- |
| CA141 (antibody, V domains shown) VH: EVQLVESGGGLVKPGGSLRLSCAASGFTFSSYSMNWVRQAPGKGLEWVSSISSSSSYIYYADSVKGRFTISRDNAKNSLYLQMNSLRAEDTAVYYCARASENGDDAFDIWGQGTMVTVSS VL: EIVLTQSPATLSLSPGERATLSCRASQSVSSYLAWYQQKPGQAPRLLIYDASNRATGIPARFSGSGSGTDFTLTISSLEPEDFAVYYCQQRSNWPPYTFGQGTKLEIK | binds |
| CA148 (antibody, V domains shown) VH: QVQLVQSGAEVKKPGASVKVSCKASGYTFTSYGISWVRQAPGQGLEWMGWISAYNGNTNYAQKLQGRVTMTTDTSTSTAYMELRSLRSDDTAVYYCARTPGDEYYYYYYMDVWGKGTTVTVSS VL: EIVLTQSPATLSLSPGERATLSCRASQSVSSYLAWYQQKPGQAPRLLIYDASNRATGIPARFSGSGSGTDFTLTISSLEPEDFAVYYCQQRSNWPRTFGQGTKLEIK | binds |
| CA132 (antibody, V domains shown) VH: EVQLVESGGGLVQPGGSLRLSCVASGFTFSTYSMNWVRQAPGKGLEWVSYISSSSSTIYYADSVKGRFTISRDNAKNSLYLQMNSLRAEDTAVYYCARDPGWLSWFDPWGQGTLVTVSS VL: EIVLTQSPPGERATLSCRASQSVSNSYLAWYQQKPGQAPRLLIYGASSRATGIPDRFSGSGSGTDFTLTISRLEPEDFAVYYCQQYGGSPRTFGQGTKVEIK | binds |
| CA143 (antibody, V domains shown) VH: EVQLVESGGGLVKPGGSLRLSCAASGFTFSSYSMNWVRQAPGKGLEWVSSISSSSSYIYYADSVKGRFTISRDNAKNSLYLQMNSLRAEDTAVYYCARDSLPAGDYFDYWGQGTLVTVSS VL: DIQLTQSPSFLSASVGDRVTITCRASQGISSYLAWYQQKPGKAPKLLIYAASTLQSGVPSRFSGSGSGTEFTLTISSLQPEDFATYYCQQLNSYPQTTFGGGTKVEIK | binds |
| CA172 (antibody, V domains shown) VH: QVQLVESGGGLVKPGGSLRLSCAASGFTFSDYYMSWIRQAPGKGLEWVSYISSSSSYTNYADSVKGRFTISRDNAKNSLYLQMNSLRAEDTAVYYCARALRYFDWYDYWGQGTLVTVSS VL: EIVLTQSPDFQSVTPKGKVTITCRASQSIGSSLHWYQQKPDQSPKLLIKYASQSFSGVPSRFSGSGSGTEFTLTISSLQPEDFATYYCQQLNSYSPITFGQGTRLEIK | binds |
